Test system: MOLT-4
Assay: NCI tumour cell line growth inhibition, 48 h
Activity calls are given as the source filed them. No stated cut-off is given here; in the data, active = GI50 up to about 1.1 µM and inactive = higher.
attribute-measured: GI50

1. O=C(CCCCCC(=O)N1CC(CCl)c2ccc([N+](=O)[O-])cc21)N1CC(CCl)c2ccc([N+](=O)[O-])cc21 (stereo not given): > 100 µM (inactive)
2. O=[N+]([O-])c1cc(Cl)ccc1S(=O)(=O)N1CCCc2cc(Cl)ccc21: 6.11 µM (inactive)
3. OCCC1(O)CCC(O)CC1 (stereo not given): > 100 µM (inactive)
4. Clc1ccc(OCc2nnc(CCCCCCCCc3nnc(COc4ccc(Cl)cc4Cl)o3)o2)c(Cl)c1: 14.3 µM (inactive)
5. COc1ccc(-c2nc(-c3cnccn3)n(C/C=C/c3ccccc3)n2)cc1: > 100 µM (inactive)
6. C=CCc1ccccc1C1CC2(C(=O)OC)OC1C(C(=O)OC)=C2C(=O)OC (stereo not given): > 10 µM (inactive)
7. Cc1cc(NS(=O)(=O)c2ccc(/N=N/c3c(O)c(C(=O)O)cc4ccccc34)cc2)nc(C)n1: > 100 µM (inactive)
8. COc1ccc(/[N+]([O-])=C/c2ccccc2OC(=S)S)cc1: 37.7 µM (inactive)
9. c1ccc2c(c1)CCc1c(-c3ccncc3)n[nH]c1-2: 36 µM (inactive)
10. O=C(NC(Nc1ccc(F)c(Cl)c1)(C(F)(F)F)C(F)(F)F)OCc1ccccc1: 26.4 µM (inactive)

###

System: 786-0
Experiment: NCI tumour cell line growth inhibition, 48 h
Active and inactive are the calls of the source. Rule as the data show it: active = GI50 up to about 1.1 µM and inactive = higher.
attribute-measured: GI50

1. COc1ccc(COCC(Cn2ccnc2)OCc2ccc(C(=O)O)cc2)cc1 (configuration not stated): > 100 µM (inactive)
2. Clc1ccc(OCc2nnc(CCCCCCCCc3nnc(COc4ccc(Cl)cc4Cl)o3)o2)c(Cl)c1: 47.1 µM (inactive)
3. NC(CCCCN/C=C1/N=C(c2ccccc2)OC1=O)C(=O)O (configuration not stated): > 100 µM (inactive)
4. CSC1C(=O)Nc2ccc3ccccc3c21 (configuration not stated): 16.1 µM (inactive)
5. N#C/C(C(=O)Nc1ccccc1)=C(/N)N1CCCC1: > 100 µM (inactive)
6. CC(C)C(CC(=O)OCC(CO)OC(=O)CC(C(C)C)C(C)C)C(C)C (configuration not stated): 12.4 µM (inactive)
7. Cl/C(=N\c1cccc2ccccc12)N(c1ccccc1)c1ccccc1: > 100 µM (inactive)
8. O=c1c(=O)c2cscc2c1=O: 5.22 µM (inactive)
9. O=C1CC(c2ccc[nH]2)=NN1c1ccccc1: > 100 µM (inactive)
10. CSc1ccc(/C=C2/C[N+](C)(C)C/C(=C/c3ccc(SC)cc3)C2=O)cc1: 13.7 µM (inactive)
11. COc1ccc(C)cc1Nc1nnc(-c2ccc(N)cc2)s1: 70.1 µM (inactive)
12. C=CCCCN1C(=O)C2C3c4ccccc4C(C=O)(c4ccccc43)C2C1=O (configuration not stated): 13.3 µM (inactive)
13. Cc1cccc2c1[C@]13OC(C)[C@]4(C)CC5OC(=O)[C@@]1(C)[C@@H]5[C@]34C(=O)O2 (some centres not stated): > 100 µM (inactive)
14. O=C1c2ccc3ccccc3c2CCC1N1CCCCC1 (configuration not stated): 18 µM (inactive)
15. COP(=O)(O)/C=C/C(NC(=O)C(Cl)(Cl)Cl)c1ccccc1 (configuration not stated): > 100 µM (inactive)
16. CC(=O)NNc1nc(C)c(C(=O)/C=C/c2ccccc2Cl)s1: > 100 µM (inactive)
17. COc1cccc2c1C(=O)c1c(O)c3c(c(O)c1C2=O)C[C@@](O)(C(C)=O)C[C@@H]3OC1CC(O)C(O)C(C)O1 (some centres not stated): 1.57 µM (inactive)
18. CCC[C@H]1O[C@@H]2CC(=O)O[C@@H]2C2=C1C(=O)C=CC2=O: 16.3 µM (inactive)
19. O=C1/C(=C/c2ccccc2O)N=C(c2ccccc2)N1C1Nc2cc3c(cc2S1)NC(N1C(=O)/C(=C/c2ccccc2O)N=C1c1ccccc1)S3 (configuration not stated): 25.4 µM (inactive)
20. Cn1c2c(c3ccccc31)CC(=S)N1CCCC(CC2O)C1 (configuration not stated): > 100 µM (inactive)
21. C=CCSSCC=C: 22.5 µM (inactive)
22. CC(C)(C)c1ccc(C(O)(c2ccc(C(C)(C)C)cc2)c2ccc(C(C)(C)C)cc2)cc1: > 100 µM (inactive)

###

Recorded GI50 values for a group of compounds are listed next.
Test system: HT-29
Experiment: NCI tumour cell line growth inhibition, 48 h
Calls of active or inactive are those of the source. Cut-off read from the data, not from the text of the source: active = GI50 up to about 1.1 µM and inactive = higher.
attribute-measured: GI50

1. CC(=O)O[C@@H]1[C@@H](C)[C@]2(CC(c3ccoc3)OC2O)C2CCC3O[C@]3(C)[C@]2(C)[C@@H]1OC(C)=O (some centres not stated): 32 µM (inactive)
2. Cn1cnc2[nH]c(=O)[nH]c(=S)c21: > 100 µM (inactive)
3. CC1Nc2ccccc2NC1C=C(C#N)C#N (configuration not stated): 16.7 µM (inactive)
4. COc1cc(/N=N\c2ccc(OC)c(S(=O)(=O)O)c2)c(C)cc1/N=N\c1ccc(/C=C/c2ccc(/N=[N+](/[O-])c3ccc(/C=C/c4ccc(/N=N/c5cc(C)c(/N=N\c6ccc(OC)c(S(=O)(=O)O)c6)cc5OC)cc4S(=O)(=O)O)c(S(=O)(=O)O)c3)cc2S(=O)(=O)O)c(S(=O)(=O)O)c1: > 100 µM (inactive)
5. Nc1ccc(C(=O)N/C(=C\C=C\c2ccco2)c2nc3c4c(ccc3[nH]2)C(=O)c2ccccc2C4=O)cc1: 49.7 µM (inactive)
6. O=C1C(O)=C(CCCc2ccc(Oc3ccccc3)cc2)C(=O)c2ccccc21: 30.9 µM (inactive)
7. COc1cccc(N2C(=O)[C@H]3CC(C)c4c([nH]c5ccccc45)[C@H]3C2=O)c1 (some centres not stated): 36.1 µM (inactive)

###

Test system: MDA-MB-231
Test: NCI tumour cell line growth inhibition, 48 h
The source made the active and inactive calls. No stated cut-off is given here; in the data, active = GI50 up to about 1.1 µM and inactive = higher.
attribute-measured: GI50

1. O=[N+]([O-])c1ccc(NN/N=N/c2ccc(-c3nc4ccccc4[nH]3)cc2)c([N+](=O)[O-])c1: > 100 µM (inactive)
2. CC(=O)c1sc2c(c1OC(=O)c1ccco1)c(=O)n(-c1ccccc1)c(=S)n2-c1ccccc1: 21.5 µM (inactive)
3. c1ccc(/C(=N/Nc2ccncn2)c2ccccn2)cc1: 32.2 µM (inactive)
4. O=C(O)c1cc(/C=C/c2cc(O)ccc2O)ccc1O: > 10 µM (inactive)
5. O=C1CN2C(c3ccccc3)=NN(c3ccc([N+](=O)[O-])cc3)C2(c2ccccc2)c2cc(Cl)ccc2N1CC1CC1 (stereo unspecified): > 100 µM (inactive)
6. O=C1/C(=C/c2ccccc2O)N=C(c2ccccc2)N1C1Nc2cc3c(cc2S1)NC(N1C(=O)/C(=C/c2ccccc2O)N=C1c1ccccc1)S3 (stereo unspecified): 32.7 µM (inactive)
7. Cc1cc(NS(=O)(=O)c2ccc(/N=N/c3c(O)c(C(=O)O)cc4ccccc34)cc2)nc(C)n1: > 100 µM (inactive)
8. Cn1c2n/c(=N\c3ccc(Cl)cc3)[n+]3ccc4ccccc4c3c-2c([O-])n1-c1ccccc1: > 100 µM (inactive)
9. CC1C2CC(CC2=O)C1(C)C (stereo unspecified): > 100 µM (inactive)
10. Oc1c(C(O)(c2ccccc2)c2ccc3ccccc3c2O)ccc2ccccc12: 13.6 µM (inactive)
11. CC(C)Oc1cccc(N2C(CCc3c[nH]c4ccc(Br)cc34)=NS(=O)(=O)c3cnccc32)c1: > 100 µM (inactive)
12. N=C(N)SCCCN: 3.3 µM (inactive)
13. CCOC(=O)C1Cc2c(cc3c4c(cccc24)N(C(C)=O)C3)N(C)C1 (stereo unspecified): 1.4 µM (inactive)
14. NC(=O)c1nnsc1NN=O: > 100 µM (inactive)
15. N#Cc1c(-c2ccccc2)c(C#N)c(=S)n(C2OC(CO)C(O)C(O)C2O)c1N (stereo unspecified): > 100 µM (inactive)
16. COc1ccc(C[n+]2cccc(O)c2)cc1: > 100 µM (inactive)

###

System: SR
Test: NCI tumour cell line growth inhibition, 48 h
Active and inactive are the calls of the source. Rule as the data show it: active = GI50 up to about 1.1 µM and inactive = higher.
Possible outcomes: TRUE = active, FALSE = inactive

1. CNC/C(Cl)=N/S(=O)(=O)c1ccc(C)cc1: FALSE
2. CNC(=O)C(C)C1C(=O)/C(=C(O)/C=C\C(C)=C\C(C)C2OC3(C)OC(C=CC34CO4)C2C)C(=O)N1C1CCC(O)C(C)O1 (centres undefined): FALSE
3. O=c1[nH]/c(=C/c2ccc(OCc3ccccc3)cn2)c(=O)[nH]/c1=C/c1ccc(F)cc1: TRUE
4. CCOC(CN(C)C(=O)Nc1cccc2ccccc12)OCC: FALSE
5. O=C(/C=C/c1ccccc1F)c1ccc(Cl)c(Cl)c1: FALSE
6. CC(=O)O[C@H]1CC[C@@]2(C)C(=CC[C@H]3[C@@H]4C[C@H](N5CCOCC5)[C@H](OC(C)=O)[C@@]4(C)CC[C@@H]32)C1: FALSE
7. COC(=O)c1c(O)ccc2c1c1c(n2CCc2ccccc2)C(=O)c2ccccc2C1=O: FALSE
8. O=C1C2=Cc3ccccc3CCN2c2ccccc21: FALSE
9. COc1cc(C2Oc3cc(-c4oc5cc(O)cc(O)c5c(=O)c4O)ccc3OC2CO)ccc1O (centres undefined) [DEHYDROSILYLBIN]: FALSE
10. O=C1/C(=C/c2ccc(Cl)cc2)N=C(c2ccccc2)N1c1ccc(S(=O)(=O)Nc2nccs2)cc1: FALSE
11. Cc1ccccc1Nc1nc2ccccc2nc1NS(=O)(=O)c1ccccc1: FALSE
12. COc1ccc(-c2nc(-c3cnccn3)n(C/C=C/c3ccccc3)n2)cc1: FALSE
13. CC1=C2C(=O)c3ccccc3C2=C(C)S(=O)(=O)O1: FALSE
14. COc1c(C)c(C/C=C(\C)CC/C=C(\C)CC/C=C(\C)CC/C=C(\C)CCC=C(C)C)c(OC)c(OC)c1OC: FALSE
15. CC1CN=C(Nc2ccc(S(N)(=O)=O)cc2)S1 (centres undefined): FALSE
16. COc1ccc(N(C(=O)Nc2ccc(Cl)c(Cl)c2)c2ccccc2)cc1: FALSE
17. CCOc1ccc2nc(NC(=O)/C(CC(=O)CC(C3=C(O)c4ccccc4CC3=O)c3ccccc3)=N\O)sc2c1 (centres undefined): FALSE
18. O=C(N/C(=C\c1ccc([N+](=O)[O-])cc1)c1nc2c(O)nc(S)nc2[nH]1)c1ccccc1: FALSE
19. CC(=O)C1=C(c2ccccc2)N(C2OC(CO)C(O)C(O)C2O)C(S)=C(C#N)C1c1ccc(Cl)cc1 (centres undefined): FALSE

Values compiled from ChEMBL document CHEMBL1201862.
